Data provenance is patent US20250134867A1.

Test system: HuS-E/2 cells
Test Description: MTT cell viability / cytotoxicity assay
Type: cell-based, human
Reported Conditions: HuS-E/2 cells, 24 h, MTT, n=3, mean±SEM; read-out: CC50 (50% cytotoxic concentration)
Measure Name: CC50 (µM)

COc1ccc2[nH]c(=O)oc2c1	1430
